The origin of these recorded values is paper PMC12040169.

viability at 28.5 h, 10 µM: recorded values
Assay: in vitro
Settings: human, hela cells, % viability

[
  {
    "compound": "Cc1cccnc1Nc1ccc(C2CCCN(C(=O)Cc3c[nH]c4ccccc34)C2)nc1 (centres unmarked) [CBK285968]",
    "viability at 28.5 h, 10 µM / %": 97.7
  },
  {
    "compound": "CCOC(=O)c1c(C)nc2n(CCN3CCCCC3)c3ccccc3n12 [CBK278238C]",
    "viability at 28.5 h, 10 µM / %": 91.3
  },
  {
    "compound": "O=C(O)c1cccc(S(=O)(=O)Nc2nc3c(Cl)cccc3s2)c1 [CBK161135]",
    "viability at 28.5 h, 10 µM / %": 96.5
  },
  {
    "compound": "COC(=O)c1ccc(N2C(=O)CC(NCCc3ccc(S(N)(=O)=O)cc3)C2=O)cc1 (centres unmarked) [CBK262859]",
    "viability at 28.5 h, 10 µM / %": 99.9
  },
  {
    "compound": "CN(C)C1(c2nnnn2CCOC(=O)Nc2ccc(Cl)cc2)CCCCC1 [CBK266093]",
    "viability at 28.5 h, 10 µM / %": 94.5
  },
  {
    "compound": "C[C@H](Cn1c(C(F)(F)F)cc2cccnc21)NC(=O)C1CC1 [CBK283227]",
    "viability at 28.5 h, 10 µM / %": 93.7
  },
  {
    "compound": "O=C(O)CC1NC(=O)C(Cc2ccccc2)NC1=O (centres unmarked) [CBK286827]",
    "viability at 28.5 h, 10 µM / %": 98.1
  },
  {
    "compound": "NNC(=O)CSc1nnc(-c2ccccc2)n1-c1ccccc1 [CBK223486]",
    "viability at 28.5 h, 10 µM / %": 92.5
  },
  {
    "compound": "Cc1ccsc1C(=O)N1CCC(n2cc(C(C)(C)O)nn2)CC1 [CBK307069]",
    "viability at 28.5 h, 10 µM / %": 110
  },
  {
    "compound": "O=C(CN(Cc1ccccc1)S(=O)(=O)c1cc(Cl)ccc1Cl)Nc1cccc(F)c1 [CBK264664]",
    "viability at 28.5 h, 10 µM / %": 89.3
  },
  {
    "compound": "CCCCSc1nc(N)cc(N2CCCN(C(=O)C3CCCO3)CC2)n1 (centres unmarked) [CBK307209]",
    "viability at 28.5 h, 10 µM / %": 86.8
  },
  {
    "compound": "NC(=O)CCC(=O)N1CCC2(C/C=C/CCOc3ccccc3C(=O)NCCCNC2=O)CC1 [CBK292059]",
    "viability at 28.5 h, 10 µM / %": 91.7
  },
  {
    "compound": "COc1cccc(C(=O)N2CCN(C(=O)c3cccc(F)c3)CC2)c1OC [CBK263316]",
    "viability at 28.5 h, 10 µM / %": 105
  },
  {
    "compound": "COC(=O)c1ccc(C)c(N(CCO)CCO)c1 [CBK262418]",
    "viability at 28.5 h, 10 µM / %": 102
  },
  {
    "compound": "CCc1nc2ccc(C(=O)Nc3ccc(C(N)=O)cc3)cn2c1N(CC)Cc1cccc(Br)c1 [CBK146960]",
    "viability at 28.5 h, 10 µM / %": 92.9
  },
  {
    "compound": "CC(C)(C)NS(=O)(=O)c1ccc(NC(=O)COc2ccc3ccccc3c2Br)cc1 [CBK267015]",
    "viability at 28.5 h, 10 µM / %": 96.5
  },
  {
    "compound": "Cc1c(Br)c([N+](=O)[O-])nn1C(C)C(=O)NCc1ccco1 (centres unmarked) [CBK269108]",
    "viability at 28.5 h, 10 µM / %": 92.2
  },
  {
    "compound": "OCCn1ncc2c(Nc3cccc(Cn4cncn4)c3)ncnc21 [CBK305965]",
    "viability at 28.5 h, 10 µM / %": 115
  },
  {
    "compound": "Cc1ccc(S(=O)(=O)NC2c3cccc4cccc(c34)C2Sc2nnnn2-c2ccccc2)cc1 (centres unmarked) [CBK265884]",
    "viability at 28.5 h, 10 µM / %": 93.1
  },
  {
    "compound": "O=C(N/N=C/c1ccc(Sc2cccc3cccnc23)o1)c1cccc(F)c1 [CBK263263]",
    "viability at 28.5 h, 10 µM / %": 87.9
  }
]
